Test system: L6
Test Protocol: Inhibition of mitochondrial respiratory complex 1 in differentiated Sprague-Dawley rat L6 myotube cells assessed as mitochondrial membrane potential at 5 uM after 40 to 60 mins by JC-1 staining based fluorescence assay (reference value: 100 +/- 1.6%)
Assay type: cell-based
Set-up: scale not given: the % may be the effect or the level left
Below is a list of entries, each paired with its recorded Activity value.
Readout: Activity (%)

Compound	Readout	Readout Number
COc1ccc(OC)c2c1CC1c3cc(Cc4ccc(N5CCCCC5)cc4)sc3CCN1C2 (stereo not given)	Activity	82.8
COc1ccc(OC)c2c1CC1c3cc(Cc4cccc(C)c4)sc3CCN1C2 (stereo not given)	Activity	84.5
COc1cccc(Cc2cc3c(s2)CCN2Cc4c(OC)ccc(OC)c4CC32)c1 (stereo not given)	Activity	76.3
COc1ccc2cc3[n+](cc2c1OC)CCc1cc2c(cc1-3)OCO2 [BERBERINE CHLORIDE]	Activity	91.5
C=CCOc1ccc(Cc2cc3c(s2)CCN2Cc4c(OC)ccc(OC)c4CC32)cc1 (stereo not given)	Activity	83.7
c1ccc(Cc2cc3c(s2)CC2c4cc5c(cc4CCN2C3)OCO5)cc1 (stereo not given)	Activity	98.2
COc1ccc(OC)c2c1CC1c3cc(C(C)c4ccccc4)sc3CCN1C2 (stereo not given)	Activity	86.6
CCCCc1cc2c(s1)CC1c3cc4c(cc3CCN1C2)OCO4 (stereo not given)	Activity	75.1
COc1ccc(OC)c2c1CC1c3cc(Cc4ccc(C)cc4)sc3CCN1C2 (stereo not given)	Activity	67.7
COc1ccc(OC)c2c1CC1c3cc(Cc4ccc(F)cc4)sc3CCN1C2 (stereo not given)	Activity	82.8

----------
Test Protocol: Cytotoxicity against Sprague-Dawley rat L6 cells assessed as cell viability at 20 uM after 12 hrs by SRB assay (reference value: 100 +/- 1.8%)
Assay type: cell-based
Assay Conditions: read-out: Activity
Below is a list of entries, each paired with its recorded viability at 12 h, 20 µM value.

Compound	viability at 12 h, 20 µM / %
COc1ccc(OC)c2c1CC1c3cc(Cc4ccc(N5CCCCC5)cc4)sc3CCN1C2 (stereo not drawn)	102
COc1ccc(OC)c2c1CC1c3cc(Cc4nccs4)sc3CCN1C2 (stereo not drawn)	103
COc1ccc(OC)c2c1CC1c3cc(Cc4ccc(N5CCOCC5)cc4)sc3CCN1C2 (stereo not drawn)	98.9
COc1ccc(OC)c2c1CC1c3cc(Cc4ccc(N5CCN(C)CC5)cc4)sc3CCN1C2 (stereo not drawn)	107
COc1ccc(OC)c2c1CC1c3cc(Cc4ccc5c(c4)CCO5)sc3CCN1C2 (stereo not drawn)	103
COc1ccc(OC)c2c1CC1c3cc(Cc4ccncc4)sc3CCN1C2 (stereo not drawn)	104
COc1ccc(OC)c2c1CC1c3cc(Cc4cccc(C)c4)sc3CCN1C2 (stereo not drawn)	101
COc1cccc(Cc2cc3c(s2)CCN2Cc4c(OC)ccc(OC)c4CC32)c1 (stereo not drawn)	100
COc1ccc(OC)c2c1CC1c3cc(Cc4ccc(NC(C)=O)cc4)sc3CCN1C2 (stereo not drawn)	94.9
COc1ccc(OC)c2c1CC1c3cc(Cc4ccc(F)cc4)sc3CCN1C2 (stereo not drawn)	100
COc1ccc(OC)c2c1CC1c3cc(Cc4ccc(S(C)(=O)=O)cc4)sc3CCN1C2 (stereo not drawn)	101
COc1ccc(OC)c2c1CC1c3cc(Cc4cc(OC)c(OC)c(OC)c4)sc3CCN1C2 (stereo not drawn)	104
COc1ccc(OC)c2c1CC1c3cc(Cc4ccc(C)cc4)sc3CCN1C2 (stereo not drawn)	107
COc1ccc(OC)c2c1CC1c3cc(Cc4ccc(Br)cc4)sc3CCN1C2 (stereo not drawn)	101
COc1ccc(OC)c2c1CC1c3cc(Cc4ccc(N(C)C)cc4)sc3CCN1C2 (stereo not drawn)	107
C=CCOc1ccc(Cc2cc3c(s2)CCN2Cc4c(OC)ccc(OC)c4CC32)cc1 (stereo not drawn)	98.7
CCc1cc2c(s1)CC1c3cc4c(cc3CCN1C2)OCO4 (stereo not drawn)	102
COc1ccc(OC)c2c1CC1c3cc(Cc4ccc(C(F)(F)F)cc4)sc3CCN1C2 (stereo not drawn)	100
COc1ccc(OC)c2c1CC1c3cc(Cc4ccccn4)sc3CCN1C2 (stereo not drawn)	103
c1cc2c(s1)CC1c3cc4c(cc3CCN1C2)OCO4 (stereo not drawn)	102
COc1ccc(OC)c2c1CC1c3cc(C(C)c4ccccc4)sc3CCN1C2 (stereo not drawn)	101
c1ccc(Cc2cc3c(s2)CC2c4cc5c(cc4CCN2C3)OCO5)cc1 (stereo not drawn)	101
CCCCc1cc2c(s1)CC1c3cc4c(cc3CCN1C2)OCO4 (stereo not drawn)	97.7
